Origin of values: patent US8193192B2

Experiment: Determination of pharmacokinetic parameters in mice (oral cassette dosing)
Type: in vivo
Conditions: male, mouse, plasma; sampling time 10 min; C57BL/6 mice, po 5 mg/kg, cassette; read-out: mean plasma conc.
observed.property: concentration at 10 min (ng/mL)

I. Cc1cc(OCc2c(-c3c(Cl)cccc3Cl)noc2C(C)C)cnc1Oc1ccc(C(=O)O)cc1 [Example 3]
II. CC(C)c1onc(-c2c(Cl)cccc2Cl)c1COc1ccc(Oc2ccc(C(=O)O)cc2)cc1 [Compound A, reference compound]
Request: Short answer wanted: higher concentration at 10 min, I or II ? Answer = label.
Response: I
(I: 904 ng/mL, II: 120 ng/mL)

* * *

Experiment: Determination of pharmacokinetic parameters in mice (oral cassette dosing)
Format: in vivo
Conditions: male, mouse, plasma; C57BL/6 mice, po 5 mg/kg; extrapolated to infinity
observed.property: AUC(0-inf) (ng·h/mL)

P. Cc1cc(OCc2c(-c3c(Cl)cccc3Cl)noc2C(C)C)cnc1Oc1ccc(C(=O)O)cc1 [Example 3]
Q. CC(C)c1onc(-c2c(Cl)cccc2Cl)c1COc1ccc(Oc2ccc(C(=O)O)cc2)cc1 [Compound A, reference compound]
Request: Short answer wanted: higher AUC(0-inf), P or Q ? Answer = label.
Response: P

* * *

Assay: Aqueous solubility assay, Protocol B, shake-flask method
Format: physicochemical
Conditions: 10 mM PBS buffer with 1% MeOH, kinetic from dmso stock, 10 mM PBS buffer pH 7.4, 1% MeOH, room temperature, read-out: Aqueous solubility pH 7.4 (μM) (±standard deviation), shake-flask method
Procedure: Aqueous solubility of compounds was determined by nephelometry or by shake-flask method as follows: Protocol B, Shake-Flask Method: Sample preparation: Sample and standard solution preparation is performed by mixing equal volumes of acetonitrile containing the internal standard (1 μM final concentration) with sample and calibration standard solutions (100 μl). […] The aqueous solubility of the compounds was determined by measuring the concentration of the PBS buffer supernatant by HPLC-MS/MS. […]
observed.property: solubility at 20 h (µM)

{"molecule": "CC(C)c1onc(-c2c(Cl)cccc2Cl)c1COc1ccc(Oc2ccc(C(=O)NS(C)(=O)=O)cc2)cn1", "solubility at 20 h / µM": 114}

P. CC(C)c1onc(-c2c(Cl)cccc2Cl)c1COc1ccc(Oc2ccc(C(=O)O)cc2)cc1 [Compound A, reference compound]
Q. Cc1cc(OCc2c(-c3c(Cl)cccc3Cl)noc2C(C)C)cnc1Oc1ccc(C(=O)O)cc1
Request: Short answer wanted: higher solubility at 20 h, P or Q ? Answer = label.
Response: Q

* * *

Assay: Determination of pharmacokinetic parameters in mice (oral cassette dosing)
Assay type: in vivo
Details: male, mouse, plasma; sampling time 120 min; C57BL/6 mice, po 5 mg/kg, cassette; read-out: mean plasma conc.
observed.property: concentration at 120 min (ng/mL)

a. CC(C)c1onc(-c2c(Cl)cccc2Cl)c1COc1ccc(Oc2ccc(C(=O)O)cc2)cc1 [Compound A, reference compound]
b. Cc1cc(OCc2c(-c3c(Cl)cccc3Cl)noc2C(C)C)cnc1Oc1ccc(C(=O)O)cc1
Request: # min-compare on concentration at 120 min between a and b Answer = label.
Response: a
(a: 24 ng/mL, b: 214 ng/mL)
